# experimental target: HIV-1 protease (Q7S) (Human immunodeficiency virus type 1 group M subtype B, UniProt P04585, Q495S)
# Construct: made in house
# assay: HIV-1 Protease RET Assay
# Assay type: biochemical
# condition notes: Ki, table of drawn compounds, unit inferred
Property: Ki; scope: individual molecules
Your answer is read as nM, so omit the unit and give the number.

Cc1c(O)cccc1C(=O)N[C@@H](Cc1ccccc1)[C@H](O)C(=O)N1CSC(C)(C)[C@H]1C(=O)NCc1ccc(F)c(F)c1F ... 0.11
Cc1ccccc1CNC(=O)[C@H]1N(C(=O)[C@@H](O)[C@H](Cc2ccccc2)NC(=O)c2cccnc2Cl)CSC1(C)C ... 0.75
C=CCNC(=O)[C@H]1N(C(=O)[C@@H](O)[C@H](Cc2ccccc2)NC(=O)[C@@H]2CCCO2)CSC1(C)C ... 17.3
Cc1ccc(C(=O)N[C@@H](Cc2ccccc2)[C@H](O)C(=O)N2CSC(C)(C)[C@H]2C(=O)CCC(F)(F)F)c(C)c1O ... 9.6
Cc1ccccc1CNC(=O)[C@H]1N(C(=O)[C@@H](O)[C@H](Cc2ccccc2)NC(=O)c2cc(C(C)(C)C)on2)CSC1(C)C ... 214
Cc1c(Cl)cccc1CNC(=O)[C@H]1N(C(=O)[C@@H](O)[C@H](Cc2ccccc2)NC(=O)c2cccc(O)c2C)CSC1(C)C ... 0.2

What the record says about Cc1c(O)cccc1C(=O)N[C@@H](Cc1ccccc1)[C@H](O)C(=O)N1CSC(C)(C)[C@H]1C(=O)NCCC(C)(C)C : Ki is 4.7

----------
# System: HIV-1
# assay: Cytopathic Effect (CPE) Inhibition Assay (XTT dye reduction)
# Assay type: cell-based
# condition notes: Human immunodeficiency virus 1
measurement label: pEC50
Note on units: pEC50 is unitless, being -log10 of a concentration expressed in mol/L.

Previously resolved entries follow.
CCC/C=C/CNC(=O)[C@H]1N(C(=O)[C@@H](O)[C@H](Cc2ccccc2)NC(=O)c2cccc(O)c2C)CSC1(C)C ... 5.85
C=CCNC(=O)[C@H]1N(C(=O)[C@@H](O)[C@H](Cc2ccccc2)NC(=O)[C@@H]2CCCO2)CSC1(C)C ... 5.48
COCCNC(=O)[C@H]1N(C(=O)[C@@H](O)[C@H](Cc2ccccc2)NC(=O)c2cccc(O)c2C)CSC1(C)C ... 6.80

# value of pEC50, HIV-1, item Cc1c(O)cccc1C(=O)N[C@@H](Cc1ccccc1)[C@H](O)C(=O)N1CSC(C)(C)[C@H]1C(=O)NCc1ccc(C(F)(F)F)cc1F = 5.85

pEC50 value, target or system HIV-1, for C#CCNC(=O)[C@H]1N(C(=O)[C@@H](O)[C@H](Cc2ccccc2)NC(=O)[C@@H]2CCCO2)CSC1(C)C : 5.43

Record C=CCN(C)C(=O)[C@H]1N(C(=O)[C@@H](O)[C@H](Cc2ccccc2)NC(=O)c2ccno2)CSC1(C)C has HIV-1 pEC50 equal to 5.31

Entry Cc1ccccc1CNC(=O)[C@H]1N(C(=O)[C@@H](O)[C@H](Cc2ccccc2)NC(=O)N2CCSC2)CSC1(C)C , HIV-1 data, pEC50 value: 5.82

Given the compound Cc1c(O)cccc1C(=O)N[C@@H](Cc1ccccc1)[C@H](O)C(=O)N1CSC(C)(C)C1C(=O)NCCC(C)C (stereo partly shown) and test system HIV-1, the measured pEC50 is 7.14

Readout pEC50 for Cc1ccccc1CNC(=O)[C@H]1N(C(=O)[C@@H](O)[C@H](Cc2ccccc2)NC(=O)c2ccccc2Cl)CSC1(C)C , test system HIV-1, was 6.23

----------
# Tested on: HIV-1
# assay: Cytopathic Effect (CPE) Inhibition Assay (XTT dye reduction)
# Format: cell-based
# condition notes: Human immunodeficiency virus 1
measurement label: pEC50
Notebook: values listed as pEC50 are -log10 of the concentration (mol/L).

Worked cases, answers included:
Cc1ccc(C(=O)N[C@@H](Cc2ccccc2)[C@H](O)C(=O)N2CSC(C)(C)[C@H]2C(=O)CCC(F)(F)F)c(C)c1O ... 6.14
Cc1c(O)cccc1C(=O)N[C@@H](Cc1ccccc1)[C@H](O)C(=O)N1CSC(C)(C)[C@H]1C(=O)NCCC(C)(C)C ... 5.97

For Cc1c(O)cccc1C(=O)N[C@@H](Cc1ccccc1)[C@H](O)C(=O)N1CSC(C)(C)[C@H]1C(=O)NCc1cccc(OCC(C)C)c1 on HIV-1, measured pEC50 was 5.95

Entry Cc1cc(C(=O)N[C@@H](Cc2ccccc2)[C@H](O)C(=O)N2CSC(C)(C)[C@H]2C(=O)NCc2ccccc2C)no1 , tested on HIV-1, has a reported pEC50 of 5.88

----------
# experimental target: HIV-1 protease (Q7S) (Human immunodeficiency virus type 1 group M subtype B, UniProt P04585, Q495S)
# Construct: made in house
# assay: HIV-1 Protease RET Assay
# Format: biochemical
# condition notes: Ave. Ki (nM), RET assay, Q7S enzyme, pH 4.8, 37 C
measurement label: Ki

C/C=C\CNC(=O)[C@H]1N(C(=O)[C@@H](O)[C@H](Cc2ccccc2)NC(=O)c2cccc(O)c2C)CSC1(C)C ... < 0.1 nM
Cc1ccccc1CNC(=O)[C@H]1N(C(=O)[C@@H](O)[C@H](Cc2ccccc2)NC(=O)c2cccc(F)c2C)CSC1(C)C ... < 0.1 nM

Attention now turns to another entry.
The value of Ki measured for the compound C/C=C(\C)CNC(=O)[C@H]1N(C(=O)[C@@H](O)[C@H](Cc2ccccc2)NC(=O)c2cccc(O)c2C)CSC1(C)C turned out to be < 0.1 nM

----------
# Tested on: HIV-1
# assay: Cytopathic Effect (CPE) Inhibition Assay (XTT dye reduction)
# Format: cell-based
# condition notes: Human immunodeficiency virus 1, 144 h, read-out: Ave CPE EC50 (mM)
// assign 1 if EC50 falls strictly below 600 nM, else 0 (ties count as 0)

// below: answered compounds
Cc1ccccc1CNC(=O)[C@H]1N(C(=O)[C@@H](O)[C@H](Cc2ccccc2)NC(=O)[C@@H]2CCCO2)CSC1(C)C ... 0
Cc1ccccc1CNC(=O)[C@H]1N(C(=O)[C@@H](O)[C@H](Cc2ccccc2)NC(=O)c2cc(Cl)on2)CSC1(C)C ... 1

Ask: Dear reviewer, please state whether Cc1c(O)cccc1C(=O)N[C@@H](Cc1ccccc1)[C@H](O)C(=O)N1CSC(C)(C)[C@H]1C(=O)NCc1ccc(OC(F)(F)F)cc1 has EC50 strictly beneath 600 nM.
Result: 0

Ask: Identify whether the compound Cc1ccccc1CNC(=O)[C@H]1N(C(=O)[C@@H](O)[C@H](Cc2ccccc2)NC(=O)c2cccs2)CSC1(C)C records EC50 below 600 nM.
Result: 1

----------
# Tested on: HIV-1
# assay: Cytopathic Effect (CPE) Inhibition Assay (XTT dye reduction)
# Type: cell-based
# condition notes: Human immunodeficiency virus 1, 144 h, read-out: Ave CPE EC50 (mM)
# EC50 listing for each entry below
Value expressed in µM; do not type the unit.

Worked examples, 9 molecules total:
Cc1ccccc1CNC(=O)[C@H]1N(C(=O)[C@@H](O)[C@H](Cc2ccccc2)NC(=O)c2ccc(F)cc2C)CSC1(C)C ... 0.736
Cc1ccc(F)cc1CNC(=O)[C@H]1N(C(=O)[C@@H](O)[C@H](Cc2ccccc2)NC(=O)c2cccc(O)c2C)COC1(C)C ... 0.233
Cc1c(O)cccc1C(=O)N[C@@H](Cc1ccccc1)[C@H](O)C(=O)N1CSC(C)(C)[C@H]1C(=O)NCc1cccc(N(C)C)c1 ... 0.367
Cc1c(O)cccc1C(=O)N[C@@H](Cc1ccccc1)[C@H](O)C(=O)N1CSC(C)(C)[C@H]1C(=O)NCc1ccc(C(F)(F)F)cc1 ... 0.565
Cc1c(O)cccc1C(=O)N[C@@H](Cc1ccccc1)[C@H](O)C(=O)N1CSC(C)(C)[C@H]1C(=O)NCc1cc(F)ccc1C(F)(F)F ... 0.433
Cn1cccc1C(=O)N[C@@H](Cc1ccccc1)[C@H](O)C(=O)N1CSC(C)(C)[C@H]1C(=O)NCc1c(F)cccc1F ... 2.32
C#CCN(C)C(=O)[C@H]1N(C(=O)[C@@H](O)[C@H](Cc2ccccc2)NC(=O)c2cccc(O)c2C)CSC1(C)C ... 0.072
COc1ccc(CNC(=O)[C@H]2N(C(=O)[C@@H](O)[C@H](Cc3ccccc3)NC(=O)c3cccc(O)c3C)CSC2(C)C)cc1 ... 0.036
CC/C=C\CNC(=O)[C@H]1N(C(=O)[C@@H](O)[C@H](Cc2ccccc2)NC(=O)c2cccc(O)c2C)CSC1(C)C ... 0.161

Field: next molecule
The measured EC50 associated with Cn1cccc1C(=O)N[C@@H](Cc1ccccc1)[C@H](O)C(=O)N1CSC(C)(C)[C@H]1C(=O)NCc1ccccc1C(F)(F)F reads 1.71
